Assay: Distribution of compound in tumor and plasma, HCT 116 xenograft mice
Type: in vivo, mouse
Conditions: female, nu/nu athymic, mouse, plasma, ip, 170 mg/kg; read-out: half-life in plasma (converted)
attributeMeasured: half-life (h)
Answers are plain numbers, in h.

Exercise: Which half-life is listed for O=C(Nc1cccc(Cl)c1)Nc1ncc(CCNc2ncnc3ccsc23)s1 [Compound 2] ?
Solution: 4.7

---

System: Calu-6
Experiment: cells
Settings: Homo sapiens, Calu-6, 96 h, read-out: BrdU IC50
attributeMeasured: IC50
Answer with the number, then the unit.

Exercise: Give the reported IC50 for CS(=O)(=O)O.O=C(Nc1cccc(Cl)c1)Nc1ncc(CCNc2ncnc3ccsc23)s1 (system: Calu-6).
Solution: 13.3 nM

---

Test: Pharmacokinetics, single bolus intravenous injection
Type: in vivo, Sprague-Dawley rats
Details: Sprague-Dawley, rat, plasma, 5 mg/kg
attributeMeasured: clearance (mL/min/kg)
One number for each entry, in mL/min/kg.

Exercise: Which clearance is listed for O=C(Nc1cccc(Cl)c1)Nc1ncc(CCNc2ncnc3ccsc23)s1 [Compound 2] ?
Solution: 41.2

---

Assay: Bioavailability profile, IV, IP and PO
Type: in vivo, mice
Details: CD-1, mouse, plasma, po, 50 mg/kg
attributeMeasured: AUC(0-inf) (ng·h/mL)
Answers are plain numbers, in ng·h/mL.

Exercise: Which AUC(0-inf) is listed for O=C(Nc1cccc(Cl)c1)Nc1ncc(CCNc2ncnc3ccsc23)s1 [Compound 2] ?
Solution: 28300

---

Assay: Bioavailability profile, IV, IP and PO
Format: in vivo, mice
Details: CD-1, mouse, plasma, iv, 50 mg/kg
attributeMeasured: C0 (ng/mL)
Answers are plain numbers, in ng/mL.

Exercise: Which C0 is listed for O=C(Nc1cccc(Cl)c1)Nc1ncc(CCNc2ncnc3ccsc23)s1 ?
Solution: 42000

---

System: MDA-MB-231
Assay: cells
Conditions: Homo sapiens, MDA-MB-231, 16 h, read-out: Cell Cycle EC50
attributeMeasured: EC50 (nM)
One number for each entry, in nM.

Exercise: Which EC50 is listed for CS(=O)(=O)O.O=C(Nc1cccc(Cl)c1)Nc1ncc(CCNc2ncnc3ccsc23)s1 ?
Solution: 30

---

Target: c-Raf (Homo sapiens)
Construct: purchased Upstate Biotechnology, Dundee, UK
Sequence (P04049 whole entry): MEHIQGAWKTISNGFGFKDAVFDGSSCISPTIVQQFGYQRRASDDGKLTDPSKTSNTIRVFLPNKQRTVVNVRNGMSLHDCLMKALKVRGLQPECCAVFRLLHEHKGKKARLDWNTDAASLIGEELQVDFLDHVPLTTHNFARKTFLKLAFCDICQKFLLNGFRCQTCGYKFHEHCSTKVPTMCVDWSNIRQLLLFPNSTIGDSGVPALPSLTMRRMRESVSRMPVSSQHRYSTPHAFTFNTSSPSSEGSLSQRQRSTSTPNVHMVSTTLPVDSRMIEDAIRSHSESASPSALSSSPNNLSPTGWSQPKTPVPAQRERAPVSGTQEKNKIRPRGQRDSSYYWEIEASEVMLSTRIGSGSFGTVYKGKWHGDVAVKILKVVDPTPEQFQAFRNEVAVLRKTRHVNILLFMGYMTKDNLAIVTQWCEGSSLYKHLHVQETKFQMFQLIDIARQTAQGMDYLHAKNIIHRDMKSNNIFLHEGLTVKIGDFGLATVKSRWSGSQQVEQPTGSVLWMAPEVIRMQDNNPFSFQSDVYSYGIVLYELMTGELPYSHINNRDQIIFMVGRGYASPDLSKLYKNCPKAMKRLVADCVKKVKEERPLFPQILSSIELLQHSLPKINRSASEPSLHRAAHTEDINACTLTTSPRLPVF
Assay: Radiometric kinase assay (Upstate panel)
Format: biochemical
attributeMeasured: IC50 (µM)
Give bare numbers, in µM.

Exercise: Which IC50 is listed for CS(=O)(=O)O.O=C(Nc1cccc(Cl)c1)Nc1ncc(CCNc2ncnc3ccsc23)s1 [Compound 1] ?
Solution: 0.1

---

Assay: Pharmacokinetics, single bolus intravenous injection
Format: in vivo, CD-1 mice
Conditions: CD-1, mouse, plasma, 5 mg/kg, read-out: Vss
attributeMeasured: Vd (L/kg)
One number for each entry, in L/kg.

Exercise: Which Vd is listed for O=C(Nc1cccc(Cl)c1)Nc1ncc(CCNc2ncnc3ccsc23)s1 ?
Solution: 1

---

Target: DDR2 (Homo sapiens)
Construct: purchased Upstate Biotechnology, Dundee, UK
Sequence (Q16832 22-855): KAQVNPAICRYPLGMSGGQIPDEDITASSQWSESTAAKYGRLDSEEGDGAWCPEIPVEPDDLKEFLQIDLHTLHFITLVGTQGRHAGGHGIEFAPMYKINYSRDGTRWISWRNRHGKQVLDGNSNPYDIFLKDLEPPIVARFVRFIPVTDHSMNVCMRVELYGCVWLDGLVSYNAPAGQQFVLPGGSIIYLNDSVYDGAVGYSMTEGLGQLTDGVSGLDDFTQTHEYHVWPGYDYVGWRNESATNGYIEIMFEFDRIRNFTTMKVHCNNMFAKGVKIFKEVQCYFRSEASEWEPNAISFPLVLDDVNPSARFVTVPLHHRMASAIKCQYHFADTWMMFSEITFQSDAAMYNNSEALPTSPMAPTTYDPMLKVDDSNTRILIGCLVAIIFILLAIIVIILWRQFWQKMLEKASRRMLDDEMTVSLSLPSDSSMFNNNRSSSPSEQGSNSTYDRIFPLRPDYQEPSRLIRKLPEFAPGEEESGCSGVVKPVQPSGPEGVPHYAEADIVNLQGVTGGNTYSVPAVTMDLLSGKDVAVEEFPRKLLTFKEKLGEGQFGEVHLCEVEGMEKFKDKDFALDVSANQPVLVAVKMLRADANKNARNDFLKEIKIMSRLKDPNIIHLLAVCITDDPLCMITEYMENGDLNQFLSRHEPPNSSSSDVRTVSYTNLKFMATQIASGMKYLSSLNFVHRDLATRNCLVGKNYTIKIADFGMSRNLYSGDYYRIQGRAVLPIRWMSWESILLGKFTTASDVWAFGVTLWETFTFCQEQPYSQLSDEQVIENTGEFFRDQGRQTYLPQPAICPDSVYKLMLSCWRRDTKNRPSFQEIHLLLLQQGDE
Test: Radiometric kinase assay (Upstate panel)
Format: biochemical
attributeMeasured: IC50 (µM)
Give bare numbers, in µM.

Exercise: Which IC50 is listed for CS(=O)(=O)O.O=C(Nc1cccc(Cl)c1)Nc1ncc(CCNc2ncnc3ccsc23)s1 ?
Solution: 0.082

---

Test: Bioavailability profile, IV, IP and PO
Type: in vivo, mice
Conditions: CD-1, mouse, plasma, ip, 50 mg/kg
attributeMeasured: AUC(0-inf) (µg·h/mL)
One number for each entry, in µg·h/mL.

Exercise: Which AUC(0-inf) is listed for O=C(Nc1cccc(Cl)c1)Nc1ncc(CCNc2ncnc3ccsc23)s1 ?
Solution: 46.2

---

Assay: Bioavailability profile, IV, IP and PO
Format: in vivo, mice
Settings: CD-1, mouse, plasma, iv, 50 mg/kg; read-out: Vss
attributeMeasured: Vd (L/kg)
Give bare numbers, in L/kg.

Exercise: Which Vd is listed for O=C(Nc1cccc(Cl)c1)Nc1ncc(CCNc2ncnc3ccsc23)s1 ?
Solution: 1.2

---

Test: Pharmacokinetics, single bolus intravenous injection
Assay type: in vivo, beagle dogs
Details: beagle, dog, plasma, 5 mg/kg
attributeMeasured: half-life
Answer with the number, then the unit.

Exercise: Which half-life is listed for O=C(Nc1cccc(Cl)c1)Nc1ncc(CCNc2ncnc3ccsc23)s1 [Compound 2] ?
Solution: 1.1 h

---

Assay: Pharmacokinetics, single bolus intravenous injection
Assay type: in vivo, Sprague-Dawley rats
Details: Sprague-Dawley, rat, plasma, 5 mg/kg
attributeMeasured: half-life (min)
Give bare numbers, in min.

Exercise: Which half-life is listed for O=C(Nc1cccc(Cl)c1)Nc1ncc(CCNc2ncnc3ccsc23)s1 [Compound 2] ?
Solution: 48

---

Experiment: Rising dose pharmacokinetics (exposure, gender)
Format: in vivo, rats
Conditions: Sprague-Dawley, plasma, iv, 300 mg/m2, rat, 300 mg/m^2
attributeMeasured: clearance (mL/min/kg)
One number for each entry, in mL/min/kg.

Exercise: Which clearance is listed for O=C(Nc1cccc(Cl)c1)Nc1ncc(CCNc2ncnc3ccsc23)s1 [Compound 2] ?
Solution: 4

---

Tested on: phospho-histone H3 in HCT 116 cells
Experiment: Phospho-histone H3 staining (High Content Screening)
Format: cell-based
Conditions: Homo sapiens; HCT 116, 1 hour treatment; read-out: EC50 of the reduction of pHH3
attributeMeasured: EC50

Exercise: Which EC50 is listed for CS(=O)(=O)O.O=C(Nc1cccc(Cl)c1)Nc1ncc(CCNc2ncnc3ccsc23)s1 ?
Solution: ~9 nM

---

Biological target: Aurora C (Homo sapiens, UniProt Q9UQB9)
Sequence (Q9UQB9 whole entry): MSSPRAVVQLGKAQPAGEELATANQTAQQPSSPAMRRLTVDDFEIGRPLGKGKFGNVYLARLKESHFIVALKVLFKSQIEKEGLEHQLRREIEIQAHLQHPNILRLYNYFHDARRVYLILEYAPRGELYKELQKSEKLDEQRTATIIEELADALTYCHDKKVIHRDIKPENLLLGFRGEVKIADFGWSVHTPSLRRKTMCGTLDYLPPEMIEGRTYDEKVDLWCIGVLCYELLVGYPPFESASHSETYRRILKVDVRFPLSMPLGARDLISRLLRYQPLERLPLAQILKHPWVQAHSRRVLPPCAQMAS
Assay: HTRF-based biochemical IC50 assay
Settings: HTRF; N 1
attributeMeasured: IC50 (µM)
Answers are plain numbers, in µM.

Exercise: Which IC50 is listed for CS(=O)(=O)O.O=C(Nc1cccc(Cl)c1)Nc1ncc(CCNc2ncnc3ccsc23)s1 ?
Solution: 0.0034

---

Test system: HT-29
Assay: cells
Conditions: Homo sapiens, HT-29, 16 h, read-out: Cell Cycle EC50
attributeMeasured: pEC50
Give bare numbers, as −log10 of the molar value.

Exercise: Which pEC50 is listed for CS(=O)(=O)O.O=C(Nc1cccc(Cl)c1)Nc1ncc(CCNc2ncnc3ccsc23)s1 ?
Solution: 7.92

---

Assay: Pharmacokinetics, single bolus intravenous injection
Type: in vivo, CD-1 mice
Settings: CD-1, mouse, plasma, 5 mg/kg
attributeMeasured: AUC(0-inf) (ng·h/mL)
Numbers only, in ng·h/mL.

Exercise: Which AUC(0-inf) is listed for O=C(Nc1cccc(Cl)c1)Nc1ncc(CCNc2ncnc3ccsc23)s1 [Compound 2] ?
Solution: 1800

---

Target: Axl (Homo sapiens, UniProt P30530)
Construct: purchased Upstate Biotechnology, Dundee, UK
Sequence (P30530 26-894): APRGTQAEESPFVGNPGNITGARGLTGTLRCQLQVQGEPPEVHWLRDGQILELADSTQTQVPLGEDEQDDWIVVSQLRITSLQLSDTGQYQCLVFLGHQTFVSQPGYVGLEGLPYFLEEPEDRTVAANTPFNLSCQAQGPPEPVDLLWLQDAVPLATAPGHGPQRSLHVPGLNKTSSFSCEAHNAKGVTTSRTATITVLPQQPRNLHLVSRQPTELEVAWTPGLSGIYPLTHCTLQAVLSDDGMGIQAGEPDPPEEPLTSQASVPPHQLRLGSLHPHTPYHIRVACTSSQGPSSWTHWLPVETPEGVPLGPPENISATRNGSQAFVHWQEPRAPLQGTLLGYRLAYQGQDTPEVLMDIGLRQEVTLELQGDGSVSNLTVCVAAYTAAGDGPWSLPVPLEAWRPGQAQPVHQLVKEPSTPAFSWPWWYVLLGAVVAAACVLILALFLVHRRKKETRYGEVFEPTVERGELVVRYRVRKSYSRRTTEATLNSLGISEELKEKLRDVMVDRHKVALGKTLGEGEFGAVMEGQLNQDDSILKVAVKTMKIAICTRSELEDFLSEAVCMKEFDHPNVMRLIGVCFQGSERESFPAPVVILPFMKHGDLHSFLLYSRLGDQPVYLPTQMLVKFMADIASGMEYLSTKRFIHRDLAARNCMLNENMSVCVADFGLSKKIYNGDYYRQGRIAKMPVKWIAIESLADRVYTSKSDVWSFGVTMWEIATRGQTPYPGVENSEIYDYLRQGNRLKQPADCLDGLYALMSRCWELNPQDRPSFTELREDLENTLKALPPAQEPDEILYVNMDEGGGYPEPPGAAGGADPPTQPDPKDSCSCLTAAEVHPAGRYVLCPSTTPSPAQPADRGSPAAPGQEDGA
Experiment: Radiometric kinase assay (Upstate panel)
Format: biochemical
attributeMeasured: IC50 (µM)
Answers are plain numbers, in µM.

Exercise: Which IC50 is listed for CS(=O)(=O)O.O=C(Nc1cccc(Cl)c1)Nc1ncc(CCNc2ncnc3ccsc23)s1 [Compound 1] ?
Solution: 0.084

---

Assay: Rising dose pharmacokinetics (exposure, gender)
Assay type: in vivo, rats
Details: Sprague-Dawley, plasma, iv, 60 mg/m2, rat, 60 mg/m^2
attributeMeasured: clearance (mL/min/kg)
Give bare numbers, in mL/min/kg.

Exercise: Which clearance is listed for O=C(Nc1cccc(Cl)c1)Nc1ncc(CCNc2ncnc3ccsc23)s1 ?
Solution: 17.2

Cited source: patent US20110293745A1
